- Tested Target: myeloperoxidase (MPO) (Homo sapiens, UniProt P05164)
- Sequence (P05164 165-273): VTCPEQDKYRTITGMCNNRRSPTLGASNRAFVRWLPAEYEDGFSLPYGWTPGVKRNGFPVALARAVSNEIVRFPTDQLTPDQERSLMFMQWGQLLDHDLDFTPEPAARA
- Sequence (P05164 279-745): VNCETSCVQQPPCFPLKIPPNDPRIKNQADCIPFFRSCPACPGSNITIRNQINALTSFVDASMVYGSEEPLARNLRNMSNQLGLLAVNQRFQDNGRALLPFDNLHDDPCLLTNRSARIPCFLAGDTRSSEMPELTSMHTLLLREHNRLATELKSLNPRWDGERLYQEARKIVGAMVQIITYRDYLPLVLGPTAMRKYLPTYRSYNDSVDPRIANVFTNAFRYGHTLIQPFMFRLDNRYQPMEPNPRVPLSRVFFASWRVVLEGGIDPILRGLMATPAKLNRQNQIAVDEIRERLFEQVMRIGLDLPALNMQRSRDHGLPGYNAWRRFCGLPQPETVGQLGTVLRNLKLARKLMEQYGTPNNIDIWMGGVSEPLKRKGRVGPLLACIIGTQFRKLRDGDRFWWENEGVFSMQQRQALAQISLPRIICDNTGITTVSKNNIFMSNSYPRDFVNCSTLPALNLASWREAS

# Compound Structure String, Tested Target, IC50
rows = [
    ("O=C(N[C@H]1COC(=O)[C@@H](NC(=O)c2cccc(O)c2O)COC(=O)[C@@H](NC(=O)c2cccc(O)c2O)COC1=O)c1cccc(O)c1O", "myeloperoxidase (MPO) (Homo sapiens, UniProt P05164)", "~1 µM"),
]
